# growth inhibition annotations
protocol notes: NCI Yeast Anticancer Drug Screen. Data for the wt1 strain (AID 149);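 note: 0% = growth of vehicle-treated wt1 cultures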
run parameters: S. cerevisiae wt1 strain (SPY 50644) growth inhibition; at 33.0 µM; active compounds read high
Compounds without any hit were thinned out: in the full panel of roughly 79,000, 15% have a hit.
attribute measured: growth inhibition (%)

1. NNC(=O)CCc1cc2ccccc2c2ccccc12    4
2. Cc1ccc(CC2(OCCN(C)C)CCC(C(C)(C)C)CC2)cc1 (centres undefined)    9
3. CN(C)c1nc(=Nc2cccc(Cl)c2)ss1    99
4. O=C(O)CCCC1CCCc2c1ccc1ccccc21 (centres undefined)    38
5. COc1ccc(NC(=O)CC2SC(=Nc3ccccc3C)NC2=O)c([N+](=O)[O-])c1 (centres undefined)    10
6. CC[N+](CC)(CC)c1ccccc1    -26
7. COc1ccc(N=CN(C)C)c(C)c1    61
8. CC(=O)Nc1ccc2c(c1)-c1ccccc1C2=O    6
9. CCOC1(c2cccc([N+](=O)[O-])c2)c2ccccc2Oc2ccccc21    2
10. Cc1cc(C)c(NC(=S)NC(=O)c2ccccc2)cc1C    -17
11. O=C1C=C(Cl)C(=O)N1c1cccc(Cl)c1    99
12. Nc1ccc2c(c1)C(=O)c1ccc(F)cc1-2    14
13. CCCCC/C(=C(\C#N)C(=O)OCC)c1ccccc1    -4
14. CN(C)c1ccc(N=Nc2ccncc2)cc1    -1
15. O=[N+]([O-])c1cccc2nc3ccccc3c(NCCCn3ccnc3[N+](=O)[O-])c12    64
16. COc1oc(C(=O)NC2CCCCC2)c(-c2ccc(Cl)cc2)c1S(=O)(=O)c1ccccc1    91
17. NC1CCCCC1N.Nc1c(N=Nc2ccc(-c3ccc(N=Nc4cc(S(=O)(=O)[O-])c5ccccc5c4N)cc3)cc2)cc(S(=O)(=O)[O-])c2ccccc12.[OH3+].[OH3+].[Pt+4]    35
18. CCCCCCOC(=O)NCCOC(=O)Nc1ccccc1    2
19. O=C(O)c1ccccc1/C=N/N=C1c2ccccc2-c2ccccc21    0
